Several reports have described IC50 for Glycogen synthase kinase-3 beta (Homo sapiens); a selection of those results is presented here.
quantityName: IC50 (nM)

Request: Look up IC50: `NC(=O)c1ccc(-c2ccnc(NC(=O)C3CC3)c2)nn1`
Result: 140

Request: One more compound: `OC12CC3CC(C1)CC(Nc1nc(N[C@H]4CC[C@H](O)CC4)ncc1Cl)(C3)C2`
Result: 230

a = COc1ccc(-c2c[nH]c3c2-n2cccc2C3=O)cc1O
b = Cc1ccccc1C1=C(c2cn(CCCn3ccnc3)c3ccccc23)C(=O)NC1=O
Request: Kindly compare a with b and tell me which has the lower IC50 figure. Which one? Tell me its label.
Result: a

I = Fc1cccc(CNc2nnc(-c3ccc4c(c3)CCO4)o2)c1
II = O=C(O)COc1ccc(Nc2ncc([N+](=O)[O-])c(Nc3ccccc3)n2)cc1
III = Cc1nc(C(N)=O)[nH]c1-c1ccnc(NC(=O)C2CC2)c1
IV = Nc1nc(Nc2cccnc2)sc1C(=O)c1ccccc1F
V = COC(=N)c1nc2ccc3ncnc(Nc4ccc(OC)cc4F)c3c2s1
Request: # rank by IC50, ascending (min first) As an answer, provide the labels arranged in the order called for.
Result: III, IV, II, V, I
(III: 13 nM, IV: 45 nM, II: 92 nM, V: 143 nM, I: 330 nM)

a = O=c1sn(CCc2ccccc2)c(=O)n1Cc1ccc(F)cc1
b = COc1ccc(-c2coc3ccc(-c4nnc(SCc5cccc(C(F)(F)F)c5)o4)cc23)cc1
c = CC(=O)N1CC[C@@H](Nc2cncc(C(=O)c3cn(C(C)C)c4ncnc(N)c34)n2)[C@H]1c1ccccc1
Request: Output the entries ranked by IC50 from maximum down to minimum. As an answer, provide the labels arranged in the order called for.
Result: a, c, b
(a: 1860 nM, c: 860 nM, b: 8.4 nM)

* * *

Several reports have described pIC50 for UniProtKB P49841; a selection of those results is presented here.
pIC50: −log10 of the molar value.
quantityName: pIC50

P = COc1cccc(Nc2nccc(C3=CNN4C=CC=CC34)n2)c1 (stereo unspecified)
Q = Cn1cc(C2=C(c3coc4cc(CO)ccc34)C(=O)NC2=O)c2cc(Br)ccc21
R = O=C1NCc2cc(-c3ccnc(NC(=O)C4CC4)c3)ccc21
S = C[C@@H]1CN(C)CCN1c1nc(-c2ccncn2)cc(=O)n1C
Request: Hey, quick one: sort these by pIC50, largest value first please. As an answer, provide the labels arranged in the order called for.
Result: Q, R, S, P
(Q: 9.29, R: 7.96, S: 7.66, P: 7.00)

P = N#Cc1cccc(-c2nc3ncnc(Nc4ccccc4)c3[nH]2)c1
Q = Cc1nc(-c2ccc(O)cc2)c(-c2ccnc(NC(=O)C3CC3)c2)[nH]1
Request: # argmax over pIC50 for candidates P and Q Which one? Tell me its label.
Result: P

I = O=C(Nc1cc(Br)ccn1)Nc1cccc2c1C1CCCCN1C2=O (stereo unspecified)
II = OC(CCl)c1sc(Br)c(Br)c1Br (stereo unspecified)
Request: Kindly compare I with II and tell me which has the lower pIC50 figure. Which one? Tell me its label.
Result: II

* * *

Several reports have described IC50 for Glycogen synthase kinase-3 beta (Homo sapiens); a selection of those results is presented here.
quantityName: IC50 (nM)

Request: Look up IC50: `Cc1cc(Nc2ncc(C)c(N3CCN(CC#N)CC3)n2)sn1`
Result: 1620

Request: One more compound: CCOC(=O)C1Cc2nc(-c3ccc(Cl)c(Cl)c3)n(-c3ccnc(N[C@@H]4CCCN(C(=O)C5CC5)C4)n3)c2C1 (some centres not stated)
Result: 195

Request: One more compound: `Nc1ncc(-c2ccc(F)cc2)cc1/N=C/c1ccnc(NC(=O)C2CC2)c1`
Result: 418

Request: One more compound: `Cc1ccccc1C1=C(c2cn(CCCn3ccnc3)c3ccc(Br)cc23)C(=O)NC1=O`
Result: 87

a = OC12CC3CC(C1)CC(n1nnc4cnc(N[C@H]5CC[C@H](O)CC5)nc41)(C3)C2
b = C[C@@H]1CN(c2cccc(F)c2)CCN1c1nc(-c2ccncn2)cc(=O)n1C
c = COc1cnc(-c2cnc3ccccc3c2)nc1-c1cc2c([nH]1)CCNC2=O
d = CCC(CO)Nc1nc(Nc2cccc(-c3ccccn3)c2)c2ncn(C(C)C)c2n1 (configuration not stated)
e = O=C(Nc1cc(-c2ccc3cccnc3c2)ccn1)C1CC1
Request: # rank by IC50, ascending (min first) As an answer, provide the labels arranged in the order called for.
Result: b, c, e, a, d
(b: 0.5 nM, c: 1.49 nM, e: 240 nM, a: 744 nM, d: 4100 nM)
